As shown below, each of these sequences has a reported shrunken log2 fold change value.
System: Escherichia coli TOP10
Assay: shrunken log2 fold change of peptide-encoding DNA abundance (4.5 h post-induction vs induction); higher = less antimicrobial activity (less host growth inhibition)
Conditions: time post-induction: 4.5 h; library: site-saturation at positions 5, 18, 19, 20
Please state the value as a number alone, without comment.

Sample answers from the record:
| RESIDUES | shrunken log2 fold change |
| --- | --- |
| RRIRYRPPRLPRPRPRPSGNPRP | -0.067 |
| RRIRMRPPRLPRPRPRPHDEPRP | -0.0018 |

Please examine the following record next.
IN: Quick one: shrunken log2 fold change for "RRIRQRPPRLPRPRPRPVLIPRP" ?
OUT: 0.0422

----------
Tested on: Escherichia coli TOP10
Test: shrunken log2 fold change of peptide-encoding DNA abundance (4.5 h post-induction vs induction); higher = less antimicrobial activity (less host growth inhibition)
Conditions: time post-induction: 4.5 h; library: site-saturation at positions 5, 18, 19, 20
As shown below, each of these sequences has a reported shrunken log2 fold change value.
Please state the value as a number alone, without comment.

Sample answers from the record:
| RESIDUES | shrunken log2 fold change |
| --- | --- |
| RRIRVRPPRLPRPRPRPVPYPRP | -0.0265 |
| RRIRPRPPRLPRPRPRPDKPPRP | -0.233 |
| RRIRPRPPRLPRPRPRPMHQPRP | 0.059 |
| RRIRSRPPRLPRPRPRPIAKPRP | -0.0775 |
| RRIRRRPPRLPRPRPRPWGWPRP | 0.482 |

IN: Quick one: shrunken log2 fold change for "RRIRDRPPRLPRPRPRPLEMPRP" ?
OUT: 0.0813

----------
System: Escherichia coli TOP10;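 also: peptides expressed intracellularly from a pBAD plasmid library in pooled LB shake-flask culture, induced with 0.3% L-arabinose, DNA abundance read by NGS, three biological replicates, DESeq2 with apeglm shrinkage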
Experiment: shrunken log2 fold change of peptide-encoding DNA abundance (4.5 h post-induction vs induction); higher = less antimicrobial activity (less host growth inhibition)
Details: time post-induction: 4.5 h; library: site-saturation at positions 5, 18, 19, 20
# label = true (1) if shrunken log2 fold change >= -0.0009 else false (0)

For orientation, consider the following solved cases.
| RESIDUES | CLASSIFICATION |
| --- | --- |
| RRIRRRPPRLPRPRPRPYKPPRP | true (1) |
| RRIRLRPPRLPRPRPRPPYVPRP | false (0) |
| RRIRFRPPRLPRPRPRPVKPPRP | false (0) |
| RRIRCRPPRLPRPRPRPTSFPRP | false (0) |
| RRIRGRPPRLPRPRPRPLQKPRP | true (1) |
| RRIRSRPPRLPRPRPRPIAAPRP | true (1) |
| RRIRKRPPRLPRPRPRPYNAPRP | false (0) |
| RRIRPRPPRLPRPRPRPAAMPRP | true (1) |
| RRIRCRPPRLPRPRPRPEVCPRP | true (1) |
| RRIRCRPPRLPRPRPRPRAPPRP | true (1) |

IN: Could you please find out whether "RRIRVRPPRLPRPRPRPHMTPRP" has shrunken log2 fold change that meets -0.0009 or exceeds it?
OUT: false (0)

IN: Could you please find out whether "RRIRHRPPRLPRPRPRPRRGPRP" has shrunken log2 fold change that meets -0.0009 or exceeds it?
OUT: true (1)

IN: Could you please find out whether "RRIRQRPPRLPRPRPRPDCAPRP" has shrunken log2 fold change that meets -0.0009 or exceeds it?
OUT: true (1)

IN: Could you please find out whether "RRIRYRPPRLPRPRPRPHPDPRP" has shrunken log2 fold change that meets -0.0009 or exceeds it?
OUT: false (0)

IN: Could you please find out whether "RRIRFRPPRLPRPRPRPCANPRP" has shrunken log2 fold change that meets -0.0009 or exceeds it?
OUT: true (1)

IN: Could you please find out whether "RRIRPRPPRLPRPRPRPHGFPRP" has shrunken log2 fold change that meets -0.0009 or exceeds it?
OUT: false (0)

Data provenance: the supplement of paper PMC9112550
